Tested on: MS2 coat protein
Assay: apparent KD of MS2 coat protein; designed switch direction (-1 OFF switch, 1 ON switch): -1; higher = weaker reporter binding
Conditions: input ligand: FMN 200 uM
Readout Kind: apparent KD of MS2 coat protein (nM)
Value expressed in nM; do not type the unit.

Consider the worked cases shown below.
Query: # assay system MS2 coat protein: give apparent KD of MS2 coat protein of GCCGUGUCAGGAUAUCGGCGGCUAUAAGUGUACGUACCUUUCGAGAAGGGACAUGAGGAUCACCCAUGUAAAUC [Eternabot (L1) Solution 25] (Eterna round: R97, puzzle: Exclusion 4)
Response: 29.9

Query: # assay system MS2 coat protein: give apparent KD of MS2 coat protein of CUGGAAAACGAGGAUAUGCACCGGCUCGCUGACGCAGAAGGCGACACAUGAGGAUCACCCAUGUCGGUACGCGA [salish99_ex6_r004_449] (Eterna round: R97, puzzle: Exclusion 6)
Response: 17.2

Further cases:
Query: # assay system MS2 coat protein: give apparent KD of MS2 coat protein of CGGGCCGGCCUUCCGGCCGGCCCGACAUGAGGAUCACCCAUGUAGGAUAUCCCGGCUGCCGGCCGGGAGAAGGACAUGCGCCCG [-45.9, -45.9 kcal, 17% A] (Eterna round: R96, puzzle: Exclusion NG 3)
Response: 104

Query: # assay system MS2 coat protein: give apparent KD of MS2 coat protein of CCGGCUUAGGAGGAUAUAGGAGUCGAUAGACACCUAGAAGGCCUAACAUGAGGAUCACCCAUGUGACCUACCGG [Mod of Eli 28 - Jieux - Exclusion 6] (Eterna round: R97, puzzle: Exclusion 6)
Response: 132

Query: # assay system MS2 coat protein: give apparent KD of MS2 coat protein of UAUUAUCAAGCUUGAUCCCACAUGAGGAUCACCCAUGUGCUCGUCUUAUUUCUGUCCUUAUUGUUCUCUCGUCUAAU [JR_STOV1_v2_Sub097] (Eterna round: R97, puzzle: Sensor, turn-off variant 1)
Response: 80.2

Query: # assay system MS2 coat protein: give apparent KD of MS2 coat protein of GUCAUCGCAGGAUAUUAGAGUUUUUACAUGAGGAUCACCCAUGUUAAUUGGGUUAAUGUCUAAGAAGGGCGAUGAA [JR_EX5_Sub013] (Eterna round: R97, puzzle: Exclusion 5)
Response: 126

Query: # assay system MS2 coat protein: give apparent KD of MS2 coat protein of CCGCAAAUGCAGGAUAUCGUAUCGGAAACGAUACGAGAAGGGUAAACAUGAGGAUCACCCAUGUUCCUUAACGG [Mat - Exclusion 6 - Eli Mod - D98] (Eterna round: R96, puzzle: Exclusion 6)
Response: 15.5

Query: # assay system MS2 coat protein: give apparent KD of MS2 coat protein of CUGUACUGAGGAUAUACAUGAGGAUCACCCAUGUGAUUUAGUGCACGCGUACGUGUACGUAGAAGGCAGUACAG [Mat - Exclusion 3 - Eli Mod - D36] (Eterna round: R97, puzzle: Exclusion 3)
Response: 183

Query: # assay system MS2 coat protein: give apparent KD of MS2 coat protein of AAUAACAAGCCGAUCCUUAACAUGAGGAUCACCCAUGUGCUCGUCUUGUAAAGUACUAUCACGAAAGUGAUAGUACA (Eterna round: R97, puzzle: Sensor, turn-off variant 1)
Response: 25.1

Query: # assay system MS2 coat protein: give apparent KD of MS2 coat protein of AGGUGUAGAGGAUAUACAGUGUAUUACAUGAGGAUCACCCAUGUCCCUCAAUGAGUGUCAGUAGAAGGCUACACCA [Omei Ex5 C3] (Eterna round: R97, puzzle: Exclusion 5)
Response: 329

====

Catalogue of apparent KD of MS2 coat protein readings, one per entry.
Tested on: MS2 coat protein
Assay: apparent KD of MS2 coat protein; designed switch direction (-1 OFF switch, 1 ON switch): -1; higher = weaker reporter binding
Conditions: Eterna round: R95; input ligand: microRNA oligo, concentration not stated
Value expressed in nM; do not type the unit.

Consider the worked cases shown below.
Query: Give the measured apparent KD of MS2 coat protein for CGGAGCAGAGGGAGAUCCAACAUGAGGAUCACCCAUGUCUCACAAGCUUUUUGCUCAUCUUAUUGUACCUUGGUGCU [JL ViennaUCT Edcesobi mod 6] (puzzle: Sensor v3, turn-off variant 1)
Response: 10.1

Query: Give the measured apparent KD of MS2 coat protein for UAUGUUGUUGUGAGGAUAUACUUUGUUUGACCGUAGUAGAAGGCACAUGAGGAUCACCCAUGUAGAUUUUUGGU [JR_BME4_Sub008] (puzzle: Brourd's mod of Exclusion 4)
Response: 9.12

Query: Give the measured apparent KD of MS2 coat protein for UUUUAACAUGAGGAUCACCCAUGUGAGGAUAUCGAAAUUUAUAUUAAUAUUAAUUAAUCGAGAAGGCACAUUUU [JMF 28] (puzzle: Exclusion 1)
Response: 97.4

Query: Give the measured apparent KD of MS2 coat protein for AGAUCCUGAGUCAGGAUAUAGAGACGGUAGUCGGGCUAGAAGGGACAUGAGGAUCACCCAUGUGGGUUCUUGCC [Rilalera] (puzzle: Brourd's mod of Exclusion 4)
Response: 10.1

Query: Give the measured apparent KD of MS2 coat protein for UGUGGAGCUUAGGAUAUUGCUCUACCAAGAGGGCGAGAAGGGAGCACAUGAGGAUCACCCAUGUGGUCCGGAAC [Edoroner] (puzzle: Exclusion 6)
Response: 14.7

Query: Give the measured apparent KD of MS2 coat protein for AUAGGGUCAGGAUAUUGCGCAGUGGACAUGAGGAUCACCCAUGUGAACUUCGUACCGGGCCAAGAAGGGACAGAAA [Tiersoaso] (puzzle: Exclusion 5)
Response: 11.3

Query: Give the measured apparent KD of MS2 coat protein for GGUUUUUUUUUCCUUUCUUACAUGAGGAUCACCCAUGUUUCUUGUCGUGCUCGCGUUGCUCGUCUGUCUGUCUGUUG [salish99_TOv1_r3_075(!)] (puzzle: Sensor v3, turn-off variant 1)
Response: 41

Query: Give the measured apparent KD of MS2 coat protein for UUUUUGUGAGGAUAUCAGUAGUAGAACAAUAGUACUACUACUGAGAAGGCACAUGAGGAUCACCCAUGUUUCUC [Fiskers Ex 4 Super stable 44 mod 10] (puzzle: Exclusion 4)
Response: 43.3

Query: Give the measured apparent KD of MS2 coat protein for GAUCCACAUGAGGAUCACCCAUGUGAGGAUAUGAUACUAUGUACUUCGGUACAUAGUAUCAGAAGGCAUAUGAA [Ex1-3: 47] (puzzle: Exclusion 1)
Response: 45.6

Query: Give the measured apparent KD of MS2 coat protein for UUUUAACAUGAGGAUCACCCAUGUGAGGAUAUCGAAAUUUAUAUUAAUAUUAUUAUAACGAGAAGGCACAUUUU [JMF 39] (puzzle: Exclusion 1)
Response: 62.2

Further cases:
Query: Give the measured apparent KD of MS2 coat protein for GCAUCCAUAGUGAGGAUAUACCUCUGGAUACAUAGGUAGAAGGCACAUGAGGAUCACCCAUGUUCCUAGGAUGC [Fiskers BMX 4 - 33] (puzzle: Brourd's mod of Exclusion 4)
Response: 16.9

Query: Give the measured apparent KD of MS2 coat protein for UUUUUAGUGCUUUUUAAGUACAUGAGGAUCACCCAUGUACUUGUCUGGUGGUCCGGACAAGCUUUUUGCUCGUCUAC [Sensor v3 - turn-off variant 1 - 2] (puzzle: Sensor v3, turn-off variant 1)
Response: 30.5

====

System: MS2 coat protein
Assay: apparent KD of MS2 coat protein; designed switch direction (-1 OFF switch, 1 ON switch): -1; higher = weaker reporter binding
Conditions: input ligand: FMN 200 uM
Readout Kind: apparent KD of MS2 coat protein (nM)
Value expressed in nM; do not type the unit.

Consider the worked cases shown below.
Query: Give the measured apparent KD of MS2 coat protein for GUCAGCUCGUGAGGAUAUACAUGAGGAUCACCCAUGUGAUCAAUAGCAGCUUCGGCUGCAUUAAUGUAGAAGGUACGAGCUGAU [ENG2/5-C2] (Eterna round: R96, puzzle: Exclusion NG 2)
Response: 105

Query: Give the measured apparent KD of MS2 coat protein for AUAAAUCAUGUAGGAUAUGCGUGGCAAAGCUAUGCAGAAGGACAUGAGGAUCACCCAUGUCUUUCCGUCUGAGUACAGACGGGA [Mat - Exclusion NG 1 - Mod of JL - D47] (Eterna round: R96, puzzle: Exclusion NG 1)
Response: 172

Query: Give the measured apparent KD of MS2 coat protein for GUUCCGCGAGGAUAUACAGACGGGUCCAAAACGUGUCUCGGACUUGAGGAUCACCCAAGUAGAAGGCGUUUCAG [salish99_ex2_r4_622] (Eterna round: R97, puzzle: Exclusion 2)
Response: 20.4

Further cases:
Query: Give the measured apparent KD of MS2 coat protein for GGAUCGAGUGUGAGGAUAUACCUAUGGAUACAUAGGUAGAAGGCACAUGAGGAUCACCCAUGUUCCUACGGUCC [Eli bmx4 4.08] (Eterna round: R97, puzzle: Brourd's mod of Exclusion 4)
Response: 713

Query: Give the measured apparent KD of MS2 coat protein for CCUCAUAGUCAGGAUAUCAGCGCGUUCGGCAAAUGAGAAGGGACCACAUGAGGAUCACCCAUGUAAAACCAAAA [Beencema] (Eterna round: R97, puzzle: Exclusion 6)
Response: 44.1

Query: Give the measured apparent KD of MS2 coat protein for UGUGUGUCAGGAUAUAGUUCGAGUUCGGAAAUGAGCUUGAGCUAGAAGGGACAUGAGGAUCACCCAUGUGCACG [-26.3, -25.3 kcal, A 27%, 1-(ca)1] (Eterna round: R97, puzzle: Exclusion 4)
Response: 148

Query: Give the measured apparent KD of MS2 coat protein for CAUUAGCAAGCGAGAUCCCACAUGAGGAUCACCCAUGUGCUCGUCUUAUAAGGUACUGUGACGAGAGUCACGGUACC [Mat - Sensor, turn-off var - Eli Mod - D42] (Eterna round: R97, puzzle: Sensor, turn-off variant 1)
Response: 15.2

Query: Give the measured apparent KD of MS2 coat protein for UAUUCACAUGAGGAUCACCCAUGUCAGGAUAUAGAAGCGUAGUCCGCAAGAAAGCUUACUAGAAGGGACGUAUU [EX1 B.22] (Eterna round: R97, puzzle: Exclusion 1)
Response: 18.8

Query: Give the measured apparent KD of MS2 coat protein for CCGGAACAUGAGGAUCACCCAUGUGAGGAUAUCGUACGUUCGUCGAAAGACGAUCGUACGAGAAGGCAUGCCGG [Eli x1 4.34] (Eterna round: R97, puzzle: Exclusion 1)
Response: 19.6

Query: Give the measured apparent KD of MS2 coat protein for GCAGCUAGUUCAGGAUAUCAGCACGUUUAGUGCUGAGAAGGGAACAUGAGGAUCACCCAUGUGAUCAAUGCUGCAAUUUUAAUU [ENG1/12-A2] (Eterna round: R96, puzzle: Exclusion NG 1)
Response: 1470

Query: Give the measured apparent KD of MS2 coat protein for UUUUACAAGCUAAGAUCCUACAUGAGGAUCACCCAUGUGGUCCGGUGACGUGAGUCACCGGACUUAGCUCGUCUUGC [salish99_S_TOV1_R5_088] (Eterna round: R97, puzzle: Sensor, turn-off variant 1)
Response: 36.2

Query: Give the measured apparent KD of MS2 coat protein for UAUAACCGAGGAUAUACAUGAGGAUCACCCAUGUAAUGUAGUAUAGUGUAUGUAAGAUGUAGAAGGUGGGAUGU (Eterna round: R97, puzzle: Exclusion 3)
Response: 49.8

Query: Give the measured apparent KD of MS2 coat protein for UGUAUUAGGUCAGGAUAUACAUGAGGAUCACCCAUGUACAUGGAGCGAGUACAGUAUCAUGCAAGGUAGAAGGGACAGUCGACG [success! :D] (Eterna round: R96, puzzle: Exclusion NG 2)
Response: 21.6

Query: Give the measured apparent KD of MS2 coat protein for CCUCAGUGAGGAUAUGCUGCCGCCGUGAAUACACACCGCGCGUAGAAGGCACAUGAGGAUCACCCAUGUGAAGG [Eternabot (Original) Solution 9] (Eterna round: R97, puzzle: Exclusion 4)
Response: 354
